Data credit: ChEMBL document CHEMBL1156948

System: Yersinia pseudotuberculosis YPIII
Experiment: Inhibition of T3S in Yersinia pseudotuberculosis YPIII expressing yopE-luxAB at 200 uM after 3 hrs by luciferase reporter gene assay
Task for the reader: assign each of the following compounds its reported inhibition.
Give the value in % but do not write % after it.

What inhibition value was documented for this compound, `O=C(COc1ccc([N+](=O)[O-])cc1)N/N=C/c1cccc(F)c1O` ?
97

Please give the result for `O=C(N/N=C/c1ccc(Cl)cc1O)c1ccncc1` too.
95

Please give the result for `COc1cccc(C(=O)N/N=C/c2cccc(F)c2O)c1` too.
74

Please give the result for `COc1ccc(/C=N/NC(=O)c2sc3ccccc3c2Cl)c(O)c1` too.
50

Please give the result for `O=C(N/N=C/c1c(O)cc(O)cc1O)c1sc2ccccc2c1Cl` too.
87
